Where do the numbers come from? From ChEMBL document CHEMBL3507680.

Experiment: Human HepG2 cell viability assay in 384 well format
Assay type: toxicity, cell-based
Design: dose 125 nL, time 70.5 hour; concentration not given beside the values
Conditions: HepG2 cells, read-out: Inhibition
cytotoxicity at 70.5 h values by entry

[
  {
    "compound": "O=C(O)CSc1nnc(-c2ccco2)n1-c1ccccc1C(F)(F)F",
    "uom": "%",
    "cytotoxicity at 70.5 h": -4.07
  },
  {
    "compound": "Cc1noc(-c2ccc(N3CCCC(C(=O)N4CCSCC4)C3)nc2)n1 (centres undefined)",
    "uom": "%",
    "cytotoxicity at 70.5 h": 3.88
  },
  {
    "compound": "COc1cccc(CN(C)C(=O)CN2CCN(CCO)CC2)c1",
    "uom": "%",
    "cytotoxicity at 70.5 h": -7.48
  },
  {
    "compound": "CNCC(=O)N[C@H]1CN(c2nc(C)c3c(n2)CCCC3)C[C@@H]1C1CC1",
    "uom": "%",
    "cytotoxicity at 70.5 h": -11.2
  },
  {
    "compound": "Cc1cnn(CC2CCCN2CC(=O)Nc2cc(C)on2)c1 (centres undefined)",
    "uom": "%",
    "cytotoxicity at 70.5 h": 0.558
  },
  {
    "compound": "CC1CCN(C)c2ccccc2N1C(=O)c1ccc(=O)n(C)n1 (centres undefined)",
    "uom": "%",
    "cytotoxicity at 70.5 h": -5.36
  },
  {
    "compound": "O=C1CN(CC[C@@H](O)c2ccccc2)CCN1c1ccccc1Cl",
    "uom": "%",
    "cytotoxicity at 70.5 h": -7.1
  },
  {
    "compound": "C=C(C)Cn1c(=O)nc(N)c2c(-c3ccc(OC)cc3)csc21",
    "uom": "%",
    "cytotoxicity at 70.5 h": -9.64
  },
  {
    "compound": "COc1cccc(-c2cccc(-c3ccn(CC4COCCO4)n3)c2)n1 (centres undefined)",
    "uom": "%",
    "cytotoxicity at 70.5 h": 13.1
  },
  {
    "compound": "CC[C@H](C)[C@H](NC(=O)c1cccc(-n2cnnn2)c1)C(=O)OC",
    "uom": "%",
    "cytotoxicity at 70.5 h": -11
  },
  {
    "compound": "CC(CCO)Nc1cccc(C(F)(F)F)n1 (centres undefined)",
    "uom": "%",
    "cytotoxicity at 70.5 h": 3.64
  },
  {
    "compound": "CN(C)CCN1C(=O)CCCC12CCCN(C(=O)c1ccncc1)C2 (centres undefined)",
    "uom": "%",
    "cytotoxicity at 70.5 h": -3.49
  },
  {
    "compound": "Cn1ccnc1CN1CC[C@@H](NS(C)(=O)=O)[C@@H]1Cc1cccnc1",
    "uom": "%",
    "cytotoxicity at 70.5 h": -2.76
  },
  {
    "compound": "O=C(NCCCNC(=O)c1cccc(O)c1)Nc1ccc(F)cc1F",
    "uom": "%",
    "cytotoxicity at 70.5 h": -2.92
  },
  {
    "compound": "O=C(NCCCn1cnnc1)C1CCCN(C2CCCC2)C1 (centres undefined)",
    "uom": "%",
    "cytotoxicity at 70.5 h": 26.7
  },
  {
    "compound": "c1cnn(CC2CN(CCCOc3ccc4c(c3)OCO4)CCO2)c1 (centres undefined)",
    "uom": "%",
    "cytotoxicity at 70.5 h": -8.43
  },
  {
    "compound": "Cc1ccc(S(=O)(=O)NC(CO)CC(C)C)cc1N(C)C (centres undefined)",
    "uom": "%",
    "cytotoxicity at 70.5 h": -3.97
  },
  {
    "compound": "O=C(c1cc(-c2cccs2)cs1)N1CCOCC1",
    "uom": "%",
    "cytotoxicity at 70.5 h": -8.23
  },
  {
    "compound": "CC(Cn1cncn1)NC(=O)N1CC2(CCCC2)c2ccccc21 (centres undefined)",
    "uom": "%",
    "cytotoxicity at 70.5 h": -1.39
  },
  {
    "compound": "NC(=O)C1CN(C(=O)Nc2ccccc2N2CCCCCC2)CCO1 (centres undefined)",
    "uom": "%",
    "cytotoxicity at 70.5 h": -17.5
  },
  {
    "compound": "O=C(NCc1nnc2n1CCC2)c1ccc(Br)s1",
    "uom": "%",
    "cytotoxicity at 70.5 h": -5.66
  },
  {
    "compound": "CCN(C)c1cc(CNC(=O)CNC(=O)CC2CCCCC2)ccn1",
    "uom": "%",
    "cytotoxicity at 70.5 h": -16.4
  },
  {
    "compound": "CCn1ncnc1C1CC(=O)NCc2nc(N)sc21 (centres undefined)",
    "uom": "%",
    "cytotoxicity at 70.5 h": 27.6
  },
  {
    "compound": "Cn1cc(C(=O)CC2CCCN2C(=O)c2ccc(Cl)o2)cn1 (centres undefined)",
    "uom": "%",
    "cytotoxicity at 70.5 h": 2.73
  }
]
